meta.source: patent US20190177416A1

Attribute: OD ratio (PD-L1/PD-L2)
molecular target: T1, human PD-L1 protein (coated antigen) (human, UniProt Q9NZQ7 19-238, limits assumed); assay: ELISA, purified nanobody 10 ug/mL, coated PD-L1 against coated PD-L2
T1 construct: Construct not described; also called PD-L1 antigen; antigenic protein PD-L1
T1 sequence (Q9NZQ7 19-238 limits assumed): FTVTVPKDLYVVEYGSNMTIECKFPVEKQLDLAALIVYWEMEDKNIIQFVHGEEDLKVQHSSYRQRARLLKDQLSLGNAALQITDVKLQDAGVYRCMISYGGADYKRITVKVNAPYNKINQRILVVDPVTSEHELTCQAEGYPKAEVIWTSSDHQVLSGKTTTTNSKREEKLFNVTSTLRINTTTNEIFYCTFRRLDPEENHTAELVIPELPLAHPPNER
Keep the answer to the number alone.

See these solved cases before continuing.
SEQ ID NO 12 (VHH, pMECS-expressed; also called anti-PD-L1 nanobody No. 12; VHH numbered 12) VHH: QVQLQESGGGSVQAGGSLRLSCAASGYTRSSHCMVWFRQAPGKEREGVALIYTGSGSTYYADSVKGRFTISQDNAKKTLYLQMNSLKPEDTAMYYCAAGTSSSSCPGLLGPPRYYNWGQGTQVTVSS    23.9
SEQ ID NO 8 (VHH, pMECS-expressed; also called anti-PD-L1 nanobody No. 8; VHH numbered 8) VHH: QVQLQESGGDSVQAGGSLRLACKVPGFTSNTCAMAWFRQAPGKEREFVSSISTGGTTGYAESAKGRFTLSKDEAKDTVYLQMNSLKPEDTAMYFCKSYACRTCIGRYCRTAPDAWGQGTQVTVSS    25.3
SEQ ID NO 3 (VHH, pMECS-expressed; also called anti-PD-L1 nanobody No. 3; VHH numbered 3) VHH: QVQLQESGGGSVQTGGSLRLSCAASTSLYSYNYMAWFSQAPGKGREGVAAVYVGDGRPYYADSVKGRFTISLDSAKNAVYLQMNSLKPEDTAMYYCAAAPGPLSHNYWYTSANYDYWGQGTQVTVSS    21
SEQ ID NO 9 (VHH, pMECS-expressed; also called anti-PD-L1 nanobody No. 9; VHH numbered 9) VHH: QVQLQESGGGSVQAGGSLRLSCAASGYTYSNDGMGWFRQIPGKEREGVAAISPTGRRTEYADSVQGRFTISRDNAKNMLSLQMNSLKPEDTGMYYCAREGSGSFSLQNSAVRSWGQGTQVTVSS    27.2
SEQ ID NO 4 (VHH, pMECS-expressed; also called anti-PD-L1 nanobody No. 4; VHH numbered 4) VHH: QVQLQESGGGSVQTGGSLRLSCAASPSIYSANYMAWFSQAPGKGREGVAAVYIGDGRPYYADSVKGRFTISLDSAKNTVYLQMNSLKPEDTAMYYCAAAPGPLGHNYWYTSANYDYWGQGTQVTVSS    25.6
SEQ ID NO 7 (VHH, pMECS-expressed; also called anti-PD-L1 nanobody No. 7; VHH numbered 7) VHH: QVQLQESGGGSVQTGGSLRLSCACSTSIYSTNYMAWFSQAPGKGREGVAAVYIGDGRPYYADSVKGRFTISLDSAKNTVYLQMNSLKPEDTAMYYCAAAPGPLSRNYWYTSANYDYWGQGTQVTVSS    29.5
SEQ ID NO 5 (VHH, pMECS-expressed; also called anti-PD-L1 nanobody No. 5; VHH numbered 5) VHH: QVQLQESGGGSVQTGGSLRLSCAASTSIYSNNYMAWFSQAPGKGREGVAAVYIDDGRPYYADSVKGRFTISLDSAKNTVYLQMNGLKPEDTAMYYCAAAPGPLSRNYWYTSANYDYWGQGTQVTVSS    26.4

Request: What does the record list as OD ratio (PD-L1/PD-L2) for SEQ ID NO 10 (VHH, pMECS-expressed; also called anti-PD-L1 nanobody No. 10; VHH numbered 10) VHH: QVQLQESGGGSVQAGGSLRLSCTAPGFTSKTCAMRWYRQAPGKEREFVSAISTVGTTTYADSVKGRFIISKDEAKDTVYLQINSLKPEDTAMYSCKTFACRHCIGQSCRTEPDYWGQGTQVTVSS ?
Response: 28.6
